Data provenance is ChEMBL document CHEMBL1201862.

Test system: T47D
Assay: NCI tumour cell line growth inhibition, 48 h
Active and inactive are the calls of the source. Cut-off read from the data, not from the text of the source: active = GI50 up to about 1.1 µM and inactive = higher.
Outcome codes: 1 (yes) = active, 0 (no) = inactive

[[record]]
compound = "Cc1ccc2nc(-c3ccc(NC(=O)c4ccc(N)cc4)c(S(=O)(=O)O)c3)sc2c1"
class_label = "0 (no)"

[[record]]
compound = "COc1ccccc1NC(=S)Nc1cc(C)ccn1"
class_label = "0 (no)"

[[record]]
compound = "O=[N+]([O-])c1cc(C(F)(F)F)cc2n[se]nc12"
class_label = "0 (no)"

[[record]]
compound = "c1ccc([P+](CCSCCSCC[P+](c2ccccc2)(c2ccccc2)c2ccccc2)(c2ccccc2)c2ccccc2)cc1"
class_label = "0 (no)"

[[record]]
compound = "CC1=C(OC2OC(CO)C(O)C(O)C2O)C(=O)C[C@H]2C1=CC[C@@H]1[C@@]2(C)C(=O)C[C@]2(C)[C@@H]([C@@](C)(O)C(=O)CCC(C)(C)O)[C@H](O)C[C@@]12C (stereo not given in full)"
class_label = "0 (no)"

[[record]]
compound = "COc1cc2cc(C(=O)N3CC(CCl)c4c3cc([N+](=O)[O-])c3ccccc43)[nH]c2c(OC)c1OC (stereo not given)"
class_label = "0 (no)"

[[record]]
compound = "CC1=NN(C(=O)CC(=O)Nc2ccccc2)C(=O)C1/N=N/c1ccc(C(=O)O)cc1 (stereo not given)"
class_label = "0 (no)"

[[record]]
compound = "Cn1c2ccccc2c2c(=S)c3ccccc3ccc21"
class_label = "0 (no)"

[[record]]
compound = "Nc1ccc(-c2nc3cc(F)ccc3s2)cc1Cl"
class_label = "1 (yes)"

[[record]]
compound = "Cc1ccc(C2NC(=N)NC3=C2CCOc2c3ccc3ccccc23)cc1 (stereo not given)"
class_label = "0 (no)"

[[record]]
compound = "CCCCNS(=O)(=O)c1n[nH]c(=O)[nH]c1=O"
class_label = "0 (no)"

[[record]]
compound = "NC(=O)c1ncn2c(=O)n(CCl)nnc12"
class_label = "0 (no)"

[[record]]
compound = "CCCCc1c2c(c(C)c3c1C(=O)OC3)Oc1ccccc1O2"
class_label = "0 (no)"

[[record]]
compound = "CCCCS(=N)(=O)CC[C@H](N)C(=O)O (stereo not given in full)"
class_label = "0 (no)"

[[record]]
compound = "CC(C(O)Cc1ccccc1)N(C)/N=N/c1ccc([N+](=O)[O-])cc1 (stereo not given)"
class_label = "0 (no)"

[[record]]
compound = "NC1=C(Cl)C(=O)c2ccccc2C1=O"
class_label = "0 (no)"

[[record]]
compound = "CC(C)C1=CC23CCC4C(C)(C(=O)O)CCCC4(C)C2CC1C1C(=O)N(c2cccc(N4C(=O)C5C6CC7C8(C)CCCC(C)(C(=O)O)C8CCC7(C=C6C(C)C)C5C4=O)c2)C(=O)C13 (stereo not given)"
class_label = "0 (no)"

[[record]]
compound = "C=C1CC(C)(c2cccc(Nc3nc4ccccc4c4occc34)c2)OC1=O (stereo not given)"
class_label = "0 (no)"

[[record]]
compound = "CSc1ccccc1P(CCP(c1ccccc1SC)c1ccccc1SC)c1ccccc1SC"
class_label = "0 (no)"

[[record]]
compound = "COC(CO[Si](C)(C)N[Si](C)(C)OCC(OC)c1ccccc1)c1ccccc1 (stereo not given)"
class_label = "0 (no)"

[[record]]
compound = "CC(=O)c1c2c(cc3c1CC1(C3)Cc3cc4c(c(C(=O)O)c3C1)CCCC4)CCCC2.CC(N)c1ccccc1 (stereo not given)"
class_label = "0 (no)"

[[record]]
compound = "CCOC(=O)NC(Nc1ccc(S(=O)(=O)Nc2nc(C)cc(C)n2)cc1)(C(=O)OCC)C(F)(F)F (stereo not given)"
class_label = "0 (no)"

[[record]]
compound = "CC(O)C1(O)C(O)CC(OC2c3cc4c(c(O)c3[C@@H]3C[C@@]2(C)OC32C=c3cc[nH]c3=N2)C(=O)c2cccc(O)c2C4=O)OC1C (stereo not given in full)"
class_label = "0 (no)"

[[record]]
compound = "O=C(O)CCCN/C(=C1\\C(=O)C(=O)N(c2ccccc2)C1=O)c1ccccc1"
class_label = "0 (no)"

[[record]]
compound = "COc1ccc2o/c(=N/c3ccccc3)c(C(N)=O)cc2c1"
class_label = "0 (no)"

[[record]]
compound = "O=C1Nc2cccc(Cl)c2/C1=C\\c1c(Cl)nc2sccn12"
class_label = "0 (no)"

[[record]]
compound = "CCOC(=O)c1c(OCC)[nH]c(=O)c(C(c2ccc(F)cc2)c2c(O)c(C(=O)OCC)c(OCC)[nH]c2=O)c1O"
class_label = "0 (no)"

[[record]]
compound = "COc1ccccc1/C=C\\C(=O)C1COCN1 (stereo not given)"
class_label = "0 (no)"

[[record]]
compound = "COc1cc(C2SCC(=O)N2c2ccc(Oc3ccc(Cl)cc3)c(Cl)c2)cc(OC)c1OC (stereo not given)"
class_label = "0 (no)"

[[record]]
compound = "CCOP(=O)(OCC)c1ccc(=O)[nH]c1-c1cccs1"
class_label = "0 (no)"

[[record]]
compound = "CCC/C(Cl)=N/OC(NC(=O)OCC)(C(F)(F)F)C(F)(F)F"
class_label = "0 (no)"

[[record]]
compound = "C/C(=N\\NC(=S)N(C)C)c1ccccn1"
class_label = "1 (yes)"

[[record]]
compound = "CCc1ccc2c(c1)/C(=C1/Nc3ccccc3/C1=N/O)C(=O)N2"
class_label = "0 (no)"

[[record]]
compound = "CCCC(Sc1nc(N)nc2nc[nH]c12)C(=O)O (stereo not given)"
class_label = "0 (no)"

[[record]]
compound = "Cc1ccc(CNc2ccc(Br)cc2)cc1"
class_label = "0 (no)"

[[record]]
compound = "O=C(C=P(c1ccccc1)(c1ccccc1)c1ccccc1)c1ccccc1-c1ccccc1C(=O)C=P(c1ccccc1)(c1ccccc1)c1ccccc1"
class_label = "1 (yes)"

[[record]]
compound = "Cc1ccc(C2=CC(=O)/C(=C\\C(=O)c3ccc(Br)cc3)O2)c(C)c1"
class_label = "0 (no)"

[[record]]
compound = "CCOC(=O)c1nc2cc(C(F)(F)F)ccc2nc1Oc1ccc(C#N)cc1"
class_label = "0 (no)"

[[record]]
compound = "CNC(=O)O/N=C1\\N(C)CN(c2ccccc2)C12CCN(CCCC(=O)c1ccc(F)cc1)CC2"
class_label = "0 (no)"

[[record]]
compound = "Cc1ccc(C(=O)CC(O)(C(F)(F)F)C(F)(F)F)cc1[N+](=O)[O-]"
class_label = "0 (no)"


###

Tested on: SR
Assay: NCI tumour cell line growth inhibition, 48 h
The source made the active and inactive calls. No stated cut-off is given here; in the data, active = GI50 up to about 1.1 µM and inactive = higher.
The entries below come with measured GI50 values attached.
parameter-measured: GI50

[[record]]
molecule = "CC(=O)Oc1ccc2cc(Oc3ccccc3)c(=O)oc2c1"
endpoint_result = "> 100 µM (inactive)"

[[record]]
molecule = "COC(CO[Si](C)(C)N[Si](C)(C)OCC(OC)c1ccccc1)c1ccccc1 (centres undefined)"
endpoint_result = "> 100 µM (inactive)"

[[record]]
molecule = "Cn1c2ccccc2c(=S)c2cc(NC(=O)CCCCC(=O)Nc3ccc4c(c3)c(=S)c3ccccc3n4C)ccc21"
endpoint_result = "> 100 µM (inactive)"

[[record]]
molecule = "C=CC1(CC[C@]2(c3ccc(OC)c(OC)c3)C=[N+]([O-])O[C@H](O[C@@H]3CCCC[C@H]3C(C)(C)c3ccccc3)C2)OCC(C)(C)CO1"
endpoint_result = "> 19.9 µM (inactive)"


###

Test system: SR
Experiment: NCI tumour cell line growth inhibition, 48 h
Active and inactive are the calls of the source. Rule as the data show it: active = GI50 up to about 1.1 µM and inactive = higher.
parameter-measured: GI50

[[record]]
molecule = "c1ccc2c(c1)N=C(c1cccc3ccccc13)CC(c1cccc3ccccc13)S2 (stereo not given)"
endpoint_result = "2.07 µM (inactive)"

[[record]]
molecule = "COC(=O)CC1C(=O)OCc2c1cc1n(c2=O)Cc2c-1nc1ccccc1c2OC (stereo not given)"
endpoint_result = "6.05 µM (inactive)"

[[record]]
molecule = "CCCCNS(=O)(=O)c1n[nH]c(=O)[nH]c1=O"
endpoint_result = "> 100 µM (inactive)"

[[record]]
molecule = "CCOC(=O)c1c(CN2CCNCC2)nc2ccc(Cl)cc2c1-c1ccccc1"
endpoint_result = "1.78 µM (inactive)"

[[record]]
molecule = "O=C(CC(c1ccccc1)N1CCCCC1)c1ccccc1 (stereo not given)"
endpoint_result = "1.7 µM (inactive)"

[[record]]
molecule = "CCOC(=O)c1nc2cc(C(F)(F)F)ccc2nc1Oc1ccc(C#N)cc1"
endpoint_result = "60.7 µM (inactive)"

[[record]]
molecule = "C[C@@]12C[C@@H](c3ccccc3O1)N1CCSC1=N2"
endpoint_result = "> 100 µM (inactive)"

[[record]]
molecule = "O=C1C2C=CC(n3[nH]c(=O)n(Cc4ccccc4)c3=O)CC2C(=O)N1c1ccc(Br)cc1 (stereo not given)"
endpoint_result = "> 100 µM (inactive)"

[[record]]
molecule = "O=C(O)CCC(NC(=O)c1ccc(Nc2nc3ccccc3nc2C(=O)O)cc1)C(=O)O (stereo not given)"
endpoint_result = "> 100 µM (inactive)"

[[record]]
molecule = "Cc1ccc(NC(=O)CC/C(CC(=O)C(C)(C)C)=N\\NC(=O)C[n+]2ccccc2)cc1C"
endpoint_result = "78.5 µM (inactive)"

